System: latently infected primary CD4 T cells
MEASUREMENT NOTES: Compound-associated cytotoxicity in latently infected cells (Cell Titer Glo)
Format: cell-based, human
SETUP CONDITIONS: continuous 48 hours, 50% cell viability reduction, three donors, mean ± SD

>  <MOLECULE>
C/C=C1\NC(=O)[C@H]2CSSCC/C=C/[C@H](CC(=O)N[C@H](C(C)C)C(=O)N2)OC(=O)[C@H](C(C)C)NC1=O [RMD, romidepsin]

>  <CC50>
107 nM

$$$$

====

EXPERIMENTAL SYSTEM: human HDAC-1 (Homo sapiens, UniProt Q13547)
Sequence (Q13547 whole entry): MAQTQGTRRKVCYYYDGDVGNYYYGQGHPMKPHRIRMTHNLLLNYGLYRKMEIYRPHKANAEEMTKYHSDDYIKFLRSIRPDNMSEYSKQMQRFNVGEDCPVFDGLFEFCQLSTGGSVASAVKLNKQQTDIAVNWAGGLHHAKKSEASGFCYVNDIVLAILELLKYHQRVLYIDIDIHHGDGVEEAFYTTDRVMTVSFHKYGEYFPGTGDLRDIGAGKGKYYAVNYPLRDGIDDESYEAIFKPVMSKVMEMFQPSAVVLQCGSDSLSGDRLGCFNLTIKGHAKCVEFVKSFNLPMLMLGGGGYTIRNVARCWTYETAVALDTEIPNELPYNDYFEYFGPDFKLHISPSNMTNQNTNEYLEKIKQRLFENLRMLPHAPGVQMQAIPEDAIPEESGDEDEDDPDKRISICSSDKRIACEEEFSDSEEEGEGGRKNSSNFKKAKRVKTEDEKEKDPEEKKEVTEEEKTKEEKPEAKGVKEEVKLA
pIC50: −log10 of the molar value.

>  <COMPOUND>
C/C=C1\NC(=O)[C@H]2CSSCC/C=C/[C@H](CC(=O)N[C@H](C(C)C)C(=O)N2)OC(=O)[C@H](C(C)C)NC1=O [RMD, romidepsin]

>  <pIC50>
9.99

$$$$

====

EXPERIMENTAL SYSTEM: human HDAC-11 (Homo sapiens, UniProt Q96DB2)
Sequence (Q96DB2 whole entry): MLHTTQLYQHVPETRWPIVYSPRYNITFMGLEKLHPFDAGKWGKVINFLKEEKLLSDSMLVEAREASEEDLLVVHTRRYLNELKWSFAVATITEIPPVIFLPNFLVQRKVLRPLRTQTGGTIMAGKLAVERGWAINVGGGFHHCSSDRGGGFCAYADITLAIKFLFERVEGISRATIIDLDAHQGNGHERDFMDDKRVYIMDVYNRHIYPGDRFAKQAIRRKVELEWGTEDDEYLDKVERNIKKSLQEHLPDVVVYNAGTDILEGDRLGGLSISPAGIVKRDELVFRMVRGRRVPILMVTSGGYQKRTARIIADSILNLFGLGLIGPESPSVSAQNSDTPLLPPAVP
pIC50: −log10 of the molar value.
MEASURED PROPERTY: pIC50

>  <COMPOUND>
C/C=C1\NC(=O)[C@H]2CSSCC/C=C/[C@H](CC(=O)N[C@H](C(C)C)C(=O)N2)OC(=O)[C@H](C(C)C)NC1=O [RMD, romidepsin]

>  <ASSAY RESULT>
9.39

$$$$

====

EXPERIMENTAL SYSTEM: human HDAC-4 (Homo sapiens, UniProt P56524)
Sequence (P56524 whole entry): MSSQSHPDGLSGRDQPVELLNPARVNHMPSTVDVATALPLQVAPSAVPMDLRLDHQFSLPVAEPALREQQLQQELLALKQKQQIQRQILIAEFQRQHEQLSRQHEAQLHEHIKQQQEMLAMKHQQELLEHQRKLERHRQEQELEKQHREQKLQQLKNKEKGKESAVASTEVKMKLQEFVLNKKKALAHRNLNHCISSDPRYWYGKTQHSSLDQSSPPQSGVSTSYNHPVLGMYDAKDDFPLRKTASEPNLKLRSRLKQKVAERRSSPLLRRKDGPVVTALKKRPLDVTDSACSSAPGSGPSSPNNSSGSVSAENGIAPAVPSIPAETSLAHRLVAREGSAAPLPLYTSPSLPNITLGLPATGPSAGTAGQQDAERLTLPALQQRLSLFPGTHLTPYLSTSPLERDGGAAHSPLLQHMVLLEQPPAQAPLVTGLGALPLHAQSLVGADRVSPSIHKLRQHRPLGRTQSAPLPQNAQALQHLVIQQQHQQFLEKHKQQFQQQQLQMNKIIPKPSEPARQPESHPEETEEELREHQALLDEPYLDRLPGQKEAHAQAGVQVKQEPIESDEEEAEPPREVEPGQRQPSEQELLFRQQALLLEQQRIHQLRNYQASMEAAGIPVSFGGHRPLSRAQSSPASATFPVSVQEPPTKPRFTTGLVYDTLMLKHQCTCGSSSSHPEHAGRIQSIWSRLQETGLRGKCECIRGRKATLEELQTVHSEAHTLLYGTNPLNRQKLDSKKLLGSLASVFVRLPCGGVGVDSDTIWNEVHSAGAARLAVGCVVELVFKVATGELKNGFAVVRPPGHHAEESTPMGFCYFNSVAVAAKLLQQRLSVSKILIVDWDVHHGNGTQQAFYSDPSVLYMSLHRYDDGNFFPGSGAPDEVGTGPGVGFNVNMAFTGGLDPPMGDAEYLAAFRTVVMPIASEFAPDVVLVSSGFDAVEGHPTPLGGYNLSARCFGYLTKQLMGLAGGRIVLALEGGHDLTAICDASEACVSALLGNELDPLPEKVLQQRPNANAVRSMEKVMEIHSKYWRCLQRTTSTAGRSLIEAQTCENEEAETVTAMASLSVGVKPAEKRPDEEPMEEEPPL
MEASURED PROPERTY: IC50

>  <SMILES STR>
C/C=C1\NC(=O)[C@H]2CSSCC/C=C/[C@H](CC(=O)N[C@H](C(C)C)C(=O)N2)OC(=O)[C@H](C(C)C)NC1=O

>  <MEASURED PROPERTY>
IC50

>  <ASSAY RESULT>
314 nM

$$$$

====

# log10 EC50 annotations
System: HIV expressing a luciferase reporter gene (NL4-3-Luc) in latently infected primary CD4 T cells
MEASUREMENT NOTES: microbe, parasite or virus in culture
Type: cell-based
SETUP CONDITIONS: Human immunodeficiency virus 1, NL43, CD4+ T, 48 h, continuous 48 hours, cells from three healthy donors, mean ± SD
MEASURED PROPERTY: log10 EC50 (log10 of the value in nM)

>  <COMPOUND>
CCN(CC)Cc1ccc2cc(COC(=O)Nc3ccc(C(=O)NO)cc3)ccc2c1 [Givinostat, givinostat]

>  <log10 EC50>
1.98

$$$$
>  <COMPOUND>
CCCCc1nc2cc(/C=C/C(=O)NO)ccc2n1CCN(CC)CC [SB939, pracinostat]

>  <log10 EC50>
2.33

$$$$
>  <COMPOUND>
Cc1[nH]c2ccccc2c1CCNCc1ccc(/C=C/C(=O)NO)cc1 [PNB, panobinostat]

>  <log10 EC50>
1.00

$$$$
>  <COMPOUND>
C/C=C1\NC(=O)[C@H]2CSSCC/C=C/[C@H](CC(=O)N[C@H](C(C)C)C(=O)N2)OC(=O)[C@H](C(C)C)NC1=O [RMD, romidepsin]

>  <log10 EC50>
0.65

$$$$
>  <COMPOUND>
Nc1ccccc1NC(=O)c1ccc(CNc2nccc(-c3cccnc3)n2)cc1 [Mocetinostat, mocetinostat]

>  <log10 EC50>
4.13

$$$$
